B1: CPEB3 Ribozyme (parent)
chain: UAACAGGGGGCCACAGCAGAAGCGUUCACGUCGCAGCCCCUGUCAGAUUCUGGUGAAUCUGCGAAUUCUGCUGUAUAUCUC

variants of: B1; assay: self-cleavage, relative activity (ratio to wild type); higher = more cleavage; in vitro, sequencing
Classes are defined on self-cleavage with ranges lowest = under 0.4, middle = from 0.4 up to 0.8, highest = 0.8 and over

# Sequence entry, Label value
records = [
    ("UAGCAGGGGGCCACAGCAGAAGCGUUCACGUCGCAGCCCCUGUCAGAUUCUGGUGAAUCUGCGAAUUCUGCUGUAUAUCCC", "highest"),
    ("UAACAGGGGGCCACAGCAGAAGCGUUCACGUCGCAGCCCCUGUCAGAUUCUGGUGAAUCUGCGAAACCUGCUGUAUAUCUC", "lowest"),
    ("UAACAGGGGGCCACAGCAGAUGCGUUCACGUCGCAGCCCCUGUCAGAUUCUGGUGAAUCUGCGAAUUCUGCUGCAUAUCUC", "middle"),
    ("UAACAGGGGGCCACAGCAGAAGCGUUCACGUCGCAGCCCCUGUCAGAUUCUGGCGAAUCUGCGAAUUCUGCUGUAUAUCCC", "highest"),
    ("UAACAGGGGGCCACGGCAGAAGCGUUCACGUCGCAGCCCCUGUCUGAUUCUGGUGAAUCUGCGAAUUCUGCUGUAUAUCUC", "middle"),
    ("UAACAGGGGGCCACAGCAGAAGCGUUCACGUCGCAGCCCCUGUCAGACUCUGGUGAAUCUGCUAAUUCUGCUGUAUAUCUC", "middle"),
    ("UAACAGGGGGCCACAGCAGAAGCGUUCACGUAGCAGCCCCUGUCAGAUUCUGGUGAAUCUGCGAAUUCUGCAGUAUAUCUC", "lowest"),
    ("UAACAGGGGGCCACUGCAGAAGCGUUCACGACGCAGCCCCUGUCAGAUUCUGGUGAAUCUGCGAAUUCUGCUGUAUAUCUC", "middle"),
    ("UAACAGGGGGCCACAGCAGAAGCGUUCACGUCGCAGCCCCUGACAGAUUCUGGUGAAUCUACGAAUUCUGCUGUAUAUCUC", "highest"),
    ("UAACAGGGGGCCACAGCAGAAGCGUUCACGUCGCAGCCCCUGUCAGAUUCUGGUGAAUCUGCUUAUUCUGCUGUAUAUCUC", "middle"),
    ("UAACAGGGGGCCACUGCAGAAGCGUUCACGUCGCAGCCCCUGUCGGAUUCUGGUGAAUCUGCGAAUUCUGCUGUAUAUCUC", "middle"),
]
